experiment.description: Viability of spleen immune cells cultured in vitro (cytotoxicity)
Format: cell-based, mice
assay.conditions: mouse, immune cells separated from the spleen, cultured in vitro; 1,000 nM; 2nd day
readout.kind: viability at 2 day, 1000 nM (%)
Entry rule: numbers only, all in %.

Give the measured viability at 2 day, 1000 nM of CCCCCC1=C/C(=C/c2[nH]c(-c3ccc[nH]3)cc2OC)N=C1C .
14

====

experiment.description: Viability of spleen immune cells cultured in vitro (cytotoxicity)
Assay type: cell-based, mice
assay.conditions: mouse, immune cells separated from the spleen, cultured in vitro; 10,000 nM; 1st day
readout.kind: viability at 1 day, 10000 nM (%)
Entry rule: numbers only, all in %.

Give the measured viability at 1 day, 10000 nM of CCCCCC1=C/C(=C/c2[nH]c(-c3ccc[nH]3)cc2OC)N=C1C [Prodigiosin, prodigiosin] .
32

====

experiment.description: Viability of spleen immune cells cultured in vitro (cytotoxicity)
Assay type: cell-based, mice
assay.conditions: mouse, immune cells separated from the spleen, cultured in vitro; 300 nM; 3rd day
readout.kind: viability at 3 day, 0.3 µM (%)
Entry rule: numbers only, all in %.

Give the measured viability at 3 day, 0.3 µM of CCCCCC1=C/C(=C/c2[nH]c(-c3ccc[nH]3)cc2OC)N=C1C [Prodigiosin, prodigiosin] .
18

====

experiment.description: Viability of spleen immune cells cultured in vitro (cytotoxicity)
Type: cell-based, mice
assay.conditions: mouse, immune cells separated from the spleen, cultured in vitro; 10 nM; 3rd day
readout.kind: viability at 3 day, 0.01 µM (%)
Entry rule: numbers only, all in %.

Give the measured viability at 3 day, 0.01 µM of CCCCCC1=C/C(=C/c2[nH]c(-c3ccc[nH]3)cc2OC)N=C1C .
79

====

experiment.description: Viability of spleen immune cells cultured in vitro (cytotoxicity)
Type: cell-based, mice
assay.conditions: mouse, immune cells separated from the spleen, cultured in vitro; 30,000 nM; 1st day
readout.kind: viability at 1 day, 30000 nM (%)
Entry rule: numbers only, all in %.

Give the measured viability at 1 day, 30000 nM of CCCCCC1=C/C(=C/c2[nH]c(-c3ccc[nH]3)cc2OC)N=C1C [Prodigiosin, prodigiosin] .
4

====

experiment.description: Viability of spleen immune cells cultured in vitro (cytotoxicity)
Format: cell-based, mice
assay.conditions: mouse, immune cells separated from the spleen, cultured in vitro; 30,000 nM; 2nd day
Description: Germ-free test animals, mice BDF1 and B6C3F1, obtained from Genetic Resources Center, Korean Research Institute of Bioscience and Biotechnology in the Korean Institute of Science and Technology, were used for the assay of the immunosuppressive activity of prodigiosin. […] When T lymphocyte activity was measured by use of a graft versus host reaction and a T cell-dependent antibody producing reaction, the prodigiosin suppressed the immune response, but exerted no toxicity on animals. […]
readout.kind: viability at 2 day, 30000 nM (%)
Entry rule: numbers only, all in %.

Give the measured viability at 2 day, 30000 nM of CCCCCC1=C/C(=C/c2[nH]c(-c3ccc[nH]3)cc2OC)N=C1C [Prodigiosin, prodigiosin] .
4

====

experiment.description: Viability of spleen immune cells cultured in vitro (cytotoxicity)
Format: cell-based, mice
assay.conditions: mouse, immune cells separated from the spleen, cultured in vitro; 100 nM; 2nd day
readout.kind: viability at 2 day, 0.1 µM (%)
Entry rule: numbers only, all in %.

Give the measured viability at 2 day, 0.1 µM of CCCCCC1=C/C(=C/c2[nH]c(-c3ccc[nH]3)cc2OC)N=C1C [Prodigiosin, prodigiosin] .
70
